Listing of recorded IC50 by entry.
target system: MMP-3 (Matrix Metalloproteinase-3, Stromelysin-1) (Homo sapiens)
Construct: C-terminal truncated form of human prostromelysin cDNA
assay overview: Inhibition assay against MMP-3 (fluorescent MCA-labeled substrate)
reported conditions: Table 10; active MMP at 20 nM, 37° C., 1.5 hours; read-out: IC50 MMP3
I only need the number, in nM, no unit after it.

Answered examples (2):
>  <molecule>
COc1ccc(C2SC(CC(=O)NC3CCCCC3)C(=O)N2C(CC(C)C)C(=O)NO)cc1 (stereo not shown)

>  <unit tag>
nM

>  <IC50>
274

$$$$
>  <molecule>
CCCN(CCC)C(=O)CC1SC(c2ccc(Cl)cc2)N(C(CC(C)C)C(=O)NO)C1=O (stereo not shown)

>  <unit tag>
nM

>  <IC50>
987

$$$$

Quick one: IC50 for CC(C)CC(C(=O)NO)N1C(=O)C(CC(=O)NCc2ccco2)[S+]([O-])C1c1ccc(Oc2ccc(Cl)cc2)cc1 (stereo not shown) ?
301

###

target system: MMP-3 (Matrix Metalloproteinase-3, Stromelysin-1) (Homo sapiens)
Construct: C-terminal truncated form of human prostromelysin cDNA
assay overview: Inhibition assay against MMP-3 (fluorescent MCA-labeled substrate)
reported conditions: Table 10; active MMP at 20 nM, 37° C., 1.5 hours; read-out: IC50 MMP3
Method: C-terminal truncated form of human prostromelysin cDNA (proMMP-3, cDNA sequence in Nature, 348, 699-704 (1990)) was subcloned, expressed in E.coli and purified as described previously (Biochemistry 30, 6476-6483 (1991)). Activation of proMMP-3 was achieved by treatment with 1 mM 4-aminophenylmercuric acetate at 37° C. for 60 min. Enzymatic assays were performed in accordance with C. G. Knight's method (FEBS Lett., 296(3), 263-266 (1992)). […]
measured metric: pIC50
# pIC50 is unitless: minus log10 of the molar concentration; print number only

Consider the following illustrative entries.
>  <compound>
CC(C)CC(C(=O)NO)N1C(=O)CSC1c1ccc(-c2ccc(Cl)cc2)o1 (centres unmarked)

>  <test result>
6.05

$$$$
>  <compound>
COc1cccc(C2SC(CC(=O)NO)C(=O)N2CC(Cl)CCCCl)c1[N+](=O)[O-] (centres unmarked)

>  <test result>
4.50

$$$$
>  <compound>
COc1ccc(/C=C2\Sc3ccc(C(F)(F)F)cc3N(CC(=O)NO)C2=O)cc1

>  <test result>
6.06

$$$$
>  <compound>
O=C(CN1C(=O)/C(=C/c2ccc(Oc3ccccc3)cc2)Sc2ccccc21)NO

>  <test result>
5.82

$$$$
>  <compound>
CNC(=O)CC1SC(c2ccc(OC)cc2)N(C(Cc2ccc(OC(C)(C)C)cc2)C(=O)NO)C1=O (centres unmarked)

>  <test result>
6.13

$$$$

Hi! What's the reported pIC50 for Cc1cc(NC(=O)CC2SC(c3ccc(Cl)cc3)N(C(Cc3ccc(OC(C)(C)C)cc3)C(=O)NO)C2=O)no1 (centres unmarked) on MMP-3 (Matrix Metalloproteinase-3, Stromelysin-1) (Homo sapiens)?
5.92

// lookup pIC50 | system=MMP-3 (Matrix Metalloproteinase-3, Stromelysin-1) (Homo sapiens) | key= O=C(NO)C(Cc1c[nH]c2ccccc12)N1C(=O)CSC1c1ccc(Cl)cc1 (centres unmarked)
5.59

Query the reported pIC50 for MMP-3 (Matrix Metalloproteinase-3, Stromelysin-1) (Homo sapiens); item: CC(C)CC(C(=O)NO)N1C(=O)CSC1c1ccc(-c2cc(C(F)(F)F)nn2C)s1 (centres unmarked)
5.42

###

target system: MMP-3 (Matrix Metalloproteinase-3, Stromelysin-1) (Homo sapiens, UniProt P08254)
Construct: C-terminal truncated form of human prostromelysin cDNA
Sequence (P08254 100-272 limits assumed): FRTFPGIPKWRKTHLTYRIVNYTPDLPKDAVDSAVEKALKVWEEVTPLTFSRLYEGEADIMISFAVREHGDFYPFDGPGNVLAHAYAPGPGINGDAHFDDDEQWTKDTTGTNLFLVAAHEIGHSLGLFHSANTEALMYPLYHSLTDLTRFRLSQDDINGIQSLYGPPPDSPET
assay overview: Inhibition assay against MMP-3 (fluorescent MCA-labeled substrate)
reported conditions: Table 10; active MMP at 20 nM, 37° C., 1.5 hours; read-out: IC50 MMP3
Note to self: use met only for IC50 readings below 0.4 µM; a reading exactly at 0.4 µM still gets not met.

>  <molecule>
CC(C)CC(C(=O)NO)N1C(=O)C(CC(=O)NCc2ccco2)SC1c1ccc(Cl)cc1 (stereo not drawn)

>  <target system>
MMP-3 (Matrix Metalloproteinase-3, Stromelysin-1) (Homo sapiens, UniProt P08254)

>  <group label>
not met

$$$$

Given COc1ccc(C2SCC(=O)N2C(Cc2ccc(OC(C)(C)C)cc2)C(=O)NO)cc1 (stereo not drawn) , is recorded IC50 strictly lower than 0.4 µM?
not met

Given COc1ccc(CC2Sc3ccccc3N([C@H](C)C(=O)NO)C2=O)cc1 (stereo partly drawn) , is recorded IC50 strictly lower than 0.4 µM?
not met

Check if IC50 falls below 0.4 µM for COc1ccc(C2SC(CC(=O)Nc3ccccn3)C(=O)N2C(Cc2ccc(OC(C)(C)C)cc2)C(=O)NO)cc1 (stereo not drawn) .
not met

IC50 under 0.4 µM? Item: COc1ccc(C2SC(CC(=O)NCc3ccco3)C(=O)N2C(Cc2ccc(OC(C)(C)C)cc2)C(=O)NO)cc1 (stereo not drawn)
not met

# strict comparison: is reported IC50 < 0.4 µM? input = O=C(CN1C(=O)C(Cc2ccc(Br)cc2)Sc2ccccc21)NO (stereo not drawn)
met

Lab note: confirm whether the reported IC50 for this molecule is below 0.4 µM, equality not counting. molecule: COc1ccc(C2SC(CC(=O)NCc3cccnc3)C(=O)N2C(Cc2ccccc2)C(=O)NO)cc1 (stereo not drawn)
not met

A record lists COC(C)(C)NC(=O)CC1SC(c2ccc(Cl)cc2)N(C(Cc2ccc(OC(C)(C)C)cc2)C(=O)NO)C1=O (stereo not drawn) . Is its IC50 below 0.4 µM?
met

Is IC50 of CCCCC(C(=O)NO)N1C(=O)CSC1c1cc2ccccc2o1 (stereo not drawn) strictly below 0.4 µM?
not met

###

Reported IC50 values for the following compounds.
target system: MMP-13 (Matrix Metalloproteinase-13, Collagenase-3) (Homo sapiens, UniProt P45452)
The reply should contain only the number, in nM.

Consider the following illustrative entries.
>  <compound>
COc1ccc(C2SCC(=O)N2C(COC(C)(C)C)C(=O)NO)cc1 (centres unmarked) [Example 105]

>  <test result>
231

$$$$
>  <compound>
COc1cccc(C2SC(CC(=O)NO)C(=O)N2CC(Cl)CCCCl)c1[N+](=O)[O-] (centres unmarked) [Example 10]

>  <test result>
5300

$$$$
>  <compound>
O=C(CN1C(=O)C(Cc2ccc(-c3ccccc3)cc2)Sc2ccccc21)NO (centres unmarked) [Example 419]

>  <test result>
63

$$$$
>  <compound>
COc1ccc(C2SC(CC(=O)NC3CCCCC3)C(=O)N2C(CC(C)C)C(=O)NO)cc1 (centres unmarked) [Example 239]

>  <test result>
35

$$$$

Query the reported IC50 for MMP-13 (Matrix Metalloproteinase-13, Collagenase-3) (Homo sapiens, UniProt P45452); item: O=C(CN1C(=O)C(Cc2ccc(O)cc2)Sc2ccccc21)NO (centres unmarked) [Example 406]
257

Value wanted: IC50 (MMP-13 (Matrix Metalloproteinase-13, Collagenase-3) (Homo sapiens, UniProt P45452)) of entry O=C(CN1C(=O)/C(=C/c2ccc(Oc3ccccc3)cc2)Sc2ccccc21)NO [Example 368]
36

Record CCC(C)C(C(=O)NO)N1C(=O)CSC1c1ccc(OC)c(F)c1 (centres unmarked) [Example 175] : what is its IC50 with MMP-13 (Matrix Metalloproteinase-13, Collagenase-3) (Homo sapiens, UniProt P45452)?
112

Request body: readout IC50, system MMP-13 (Matrix Metalloproteinase-13, Collagenase-3) (Homo sapiens, UniProt P45452), query COCCCNC(=O)CC1SC(c2ccc(OC)cc2)N(C(Cc2ccc(OC(C)(C)C)cc2)C(=O)NO)C1=O (centres unmarked) [Example 329] . Return the value.
11

###

target system: MMP-3 (Matrix Metalloproteinase-3, Stromelysin-1) (Homo sapiens)
Construct: C-terminal truncated form of human prostromelysin cDNA
assay overview: Inhibition assay against MMP-3 (fluorescent MCA-labeled substrate)
reported conditions: Table 10; active MMP at 20 nM, 37° C., 1.5 hours; read-out: IC50 MMP3
Below, each entry is listed with its recorded IC50.
The response must be a number in µM with no trailing unit.

Examples with answers:
>  <compound>
O=C(CN1C(=O)C(Cc2ccc(-c3ccccc3)cc2)Sc2ccccc21)NO (stereo not drawn) [Example 419]

>  <IC50 / µM>
0.514

$$$$
>  <compound>
C=CCNC(=O)CC1SC(c2ccc(Cl)cc2)N(C(CC(C)C)C(=O)NO)C1=O (stereo not drawn) [Example 262]

>  <IC50 / µM>
0.85

$$$$
>  <compound>
COc1ccc(C2SC(CC(=O)NC(C)C)C(=O)N2C(Cc2ccccc2)C(=O)NO)cc1 (stereo not drawn) [Example 479]

>  <IC50 / µM>
0.27

$$$$
>  <compound>
COc1ccc(/C=C2\Sc3cc(Cl)ccc3N(CC(=O)NO)C2=O)cc1 [Example 370]

>  <IC50 / µM>
1.2

$$$$
>  <compound>
COc1ccc(C2SCC(=O)N2C(COC(C)(C)C)C(=O)NO)cc1 (stereo not drawn) [Example 105]

>  <IC50 / µM>
6.72

$$$$
>  <compound>
COc1ccc(CC2Sc3cccc(Cl)c3N(CC(=O)NO)C2=O)cc1 (stereo not drawn) [Example 429]

>  <IC50 / µM>
5.62

$$$$

// switching to the query compound
Test system MMP-3 (Matrix Metalloproteinase-3, Stromelysin-1) (Homo sapiens); read-out IC50; what value for O=C(CN1C(=O)/C(=C/c2ccccc2)Sc2ccccc21)NO [Example 388] ?
23
